# Target Or Test System: Nuclear receptor subfamily 0 group B member 1 (Homo sapiens)
# Assay Text: DAX1 (NR0B1) inhibitors, primary screen, cell-based, HEK293, Gal4-DAX1, luciferase luminescence (AID 504766);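 further: 0% = DAX1-transfected cells with DMSO and 100% = empty-vector control cells with DMSO; inhibition shows as a rise in luminescence from relieved DAX1 repression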
# Test Conditions: HEK293 Gal4-DAX1 luciferase reporter, at 6.75 µM, hits give high values
About 3,400 (1%) of roughly 340,000 compounds were called active. This is one part of a sample in which actives are shown more often than they occur.
Experimental Endpoint: inhibition (%)
Give the value, in units of %, as a plain number.

Recorded results for 2 compounds are shown here.
Compound	Recorded Value
CNC(=O)C[C@H]1C(=O)N(c2ccc(OC)cc2)C[C@@H]1Cc1ccccc1	0.14
Cc1ccc(-c2ccc(CN3C(C(C)C)C(=O)N(Cc4cn(CCC5OCCO5)nn4)CCS3(=O)=O)cc2)cc1 (configuration not stated)	-1.47

Which value of inhibition has been reported for "O=C1CCC(C(=O)OCC(=O)Nc2ccc(OC(F)F)cc2)=NN1" in the records? 0.5

Which value of inhibition has been reported for "O=C(O)CCn1c(Cc2ccccc2)nc2ccccc21" in the records? 0.63

Which value of inhibition has been reported for CC1C(=O)N(Cc2cn(Cc3ccco3)nn2)CCS(=O)(=O)N1Cc1ccc(-c2cccc(CO)c2)cc1 (configuration not stated) in the records? 0.37

Which value of inhibition has been reported for "CNS(=O)(=O)c1ccc2c(c1)[nH]c(=S)n2C" in the records? 0.47

Which value of inhibition has been reported for "Cc1nc(-c2nnc(SCC(=O)Nc3cc(C(F)(F)F)cc(C(F)(F)F)c3)n2C)cs1" in the records? 6.44

Which value of inhibition has been reported for "COc1ccc(NC(=O)CN(C)C(=O)c2cc(C)oc2C)cc1" in the records? -0.29

Which value of inhibition has been reported for "Cn1c(SCC(=O)Nc2cccc(NC(=O)c3cccs3)c2)nnc1-c1ccncc1" in the records? -0.64

Which value of inhibition has been reported for "CC(=O)c1sc(N/N=C/c2ccc(C(C)C)cc2)nc1C" in the records? 0.37

Which value of inhibition has been reported for CCOC(=O)C1=C(C)c2ccccc2OC1(C)C(=O)OCC (configuration not stated) in the records? 0.33

Which value of inhibition has been reported for "O=C1CC[C@@H](C(=O)N2CSC[C@@H]2C(=O)Nc2ccc(C(F)(F)F)cc2)N1" in the records? 0.12

Which value of inhibition has been reported for "CCOC(=O)C1(C(F)(F)F)N=C(N(C)C)OC(N(C)C)=N1" in the records? 5.05

Which value of inhibition has been reported for "CCn1c(CNS(=O)(=O)c2ccc(Cl)cc2)n[nH]c1=S" in the records? 0.01

Which value of inhibition has been reported for "N#Cc1ccsc1NC(=O)CN1CCN(S(=O)(=O)c2cc(Cl)ccc2Cl)CC1" in the records? -0.1

Which value of inhibition has been reported for COCCCN1C(=O)C(CC(=O)NCc2cccs2)CC(C(=O)N2CCOCC2)=C1C (configuration not stated) in the records? 1.28

Which value of inhibition has been reported for "Cc1cc2ccccc2n1CCNC(=O)COc1ccc2ccccc2c1" in the records? -0.5

Which value of inhibition has been reported for "CC(C)c1ccc(C=NNc2ccc([N+](=O)[O-])cn2)cc1" in the records? 4.47

Which value of inhibition has been reported for CCOC(=O)C(NC(C)=O)C(=O)Nc1ccc(OC)cc1 (configuration not stated) in the records? 1.97

Which value of inhibition has been reported for CSc1ncccc1C(=O)N1CCCC(Nc2ccc(F)c(F)c2)C1 (configuration not stated) in the records? -0.54

Which value of inhibition has been reported for "Cc1nc2ccccc2nc1CC(O)(c1ccccc1)c1ccccc1" in the records? 1.49

Which value of inhibition has been reported for "O=C(CN1CCN(S(=O)(=O)c2cc(Cl)ccc2Cl)CC1)c1ccc(O)c(O)c1" in the records? 0.26

====

# Target Or Test System: Nuclear receptor subfamily 0 group B member 1 (Homo sapiens)
# Assay Text: DAX1 (NR0B1) inhibitors, primary screen, cell-based, HEK293, Gal4-DAX1, luciferase luminescence (AID 504766)
# Test Conditions: HEK293 Gal4-DAX1 luciferase reporter, at 6.75 µM, hits give high values
Hit rate of the full screen: of about 340,000 compounds, about 3,400 (1%) were called active. For the sample, actives were picked, then their nearest neighbours and some compounds at random.
In this section, each of the compounds is paired with its reported inhibition.
Give the value, in units of %, as a plain number.

Compound	Target Or Test System	inhibition [%]
CC1=C(C(=O)N(C)C)CC(CC(=O)NCCc2ccccn2)C(=O)N1CCC1=CCCCC1 (stereo not drawn)	Nuclear receptor subfamily 0 group B member 1 (Homo sapiens)	1.44
Cc1ccc(S(=O)(=O)N2CCOCC2)cc1NC(=O)c1ccncc1	Nuclear receptor subfamily 0 group B member 1 (Homo sapiens)	0.21
O=C(Nc1ccccc1N1CCOCC1)c1csc2c1CCCC2	Nuclear receptor subfamily 0 group B member 1 (Homo sapiens)	-0.73
COc1ccc(-n2nc(C(=O)NCC(=O)N3CCC(C(N)=O)CC3)c3ccccc3c2=O)cc1OC	Nuclear receptor subfamily 0 group B member 1 (Homo sapiens)	5.14
O=C(CCCN1C(=O)C(c2ccccc2)Oc2cccnc21)Nc1ccccc1Br (stereo not drawn)	Nuclear receptor subfamily 0 group B member 1 (Homo sapiens)	0.05

// switching to the query compound
Which value of inhibition has been reported for "O=c1[nH]c2ccccc2n1C1CCN(CCOc2ccccc2)CC1" in the records? -1.06

====

# Target Or Test System: Nuclear receptor subfamily 0 group B member 1 (Homo sapiens) (UniProt P51843)
# Sequence (P51843 207-470 limits assumed): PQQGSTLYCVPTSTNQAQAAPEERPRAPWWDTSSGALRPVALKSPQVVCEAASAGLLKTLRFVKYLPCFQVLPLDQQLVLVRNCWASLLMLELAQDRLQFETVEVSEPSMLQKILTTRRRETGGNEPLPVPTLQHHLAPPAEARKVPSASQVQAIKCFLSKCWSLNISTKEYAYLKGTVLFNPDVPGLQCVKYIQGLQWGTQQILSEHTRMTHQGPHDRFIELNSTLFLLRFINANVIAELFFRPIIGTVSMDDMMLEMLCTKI
# Assay Text: DAX1 (NR0B1) inhibitors, primary screen, cell-based, HEK293, Gal4-DAX1, luciferase luminescence (AID 504766);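 further: 0% = DAX1-transfected cells with DMSO and 100% = empty-vector control cells with DMSO; inhibition shows as a rise in luminescence from relieved DAX1 repression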
# Test Conditions: HEK293 Gal4-DAX1 luciferase reporter, at 6.75 µM, hits give high values
In all, about 340,000 compounds went through this assay and about 3,400 (1%) were called active. Only a selection was taken, and actives are over-represented in it overall.
In this section, each of the molecules is paired with its reported inhibition.
Give the value, in units of %, as a plain number.

Molecule	Recorded Value
COc1ccc(OCc2n[nH]c(=S)n2N)cc1	0.95
Cn1c(=O)n(C)c2cc(C(=O)Nc3ccc4c(c3)OCO4)ccc21	13.2
O=C(NCc1nnnn1-c1ccc(Cl)cc1)c1ccc2c(c1)OCO2	0.46

Which value of inhibition has been reported for COCOCCn1cc(CN2CCS(=O)(=O)N(Cc3ccc(-c4ccc(OC)cc4)cc3)C(CC(C)C)C2=O)nn1 (stereo unspecified) in the records? -0.18

Which value of inhibition has been reported for "O=C(Nc1ccc(N2CCOCC2)cc1)c1ccc2c(c1)OCO2" in the records? 1.98

Which value of inhibition has been reported for COCOCCn1cc(CN2CCS(=O)(=O)N(Cc3ccc(-c4cccc(N(C)C)c4)cc3)C(CC(C)C)C2=O)nn1 (stereo unspecified) in the records? 2.25

Which value of inhibition has been reported for "N#Cc1ccc(OCC(=O)Nc2nc(-c3ccccn3)cs2)cc1" in the records? -0.76

====

# Target Or Test System: Nuclear receptor subfamily 0 group B member 1 (Homo sapiens) (UniProt P51843)
# Assay Text: DAX1 (NR0B1) inhibitors, primary screen, cell-based, HEK293, Gal4-DAX1, luciferase luminescence (AID 504766);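 further: 0% = DAX1-transfected cells with DMSO and 100% = empty-vector control cells with DMSO; inhibition shows as a rise in luminescence from relieved DAX1 repression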
# Test Conditions: HEK293 Gal4-DAX1 luciferase reporter, at 6.75 µM
In all, about 340,000 compounds went through this assay and about 3,400 (1%) were called active.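 Rule for the calls: active = inhibition above the mean over all tested compounds plus 3 SD (cut at about 4.2% in these data); inactive = the rest.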 This is one part of a sample in which actives are shown more often than they occur.
Entry note: the call must match one of active, inactive

Recorded results for 5 compounds are shown here.
Compound Structure String	Qualitative Label
Cc1nn(CC(=O)N2CCCCC2)c(=O)c2nn(-c3ccccc3)c(C)c12	inactive
COC(=O)/C=C/C(=O)NCc1ccco1	inactive
O=C(CC12CC3CC(CC(C3)C1)C2)NCc1ccco1	inactive
CC(C)(C)NC(=O)NCc1ccco1	active
Cc1nc2c(ncn2-c2ccccc2)c(=O)n1NC(=O)CN1CCCC1	active

As a next step, examine the compound that follows.
For this compound, state the assay outcome: "Cc1csc(NC(=O)CN2CCCCCC2)n1" inactive

====

# Target Or Test System: Nuclear receptor subfamily 0 group B member 1 (Homo sapiens) (UniProt P51843)
# Assay Text: DAX1 (NR0B1) inhibitors, primary screen, cell-based, HEK293, Gal4-DAX1, luciferase luminescence (AID 504766);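 further: 0% = DAX1-transfected cells with DMSO and 100% = empty-vector control cells with DMSO; inhibition shows as a rise in luminescence from relieved DAX1 repression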
# Test Conditions: HEK293 Gal4-DAX1 luciferase reporter, at 6.75 µM, hits give high values
Out of some 340,000 compounds screened, about 3,400 (1%) were called active. The full list was thinned out, with actives kept by preference.
In this section, each of the molecules is paired with its reported inhibition.
Give the value, in units of %, as a plain number.

Recorded results for 2 molecules are shown here.
Molecule	Experimental Endpoint	Recorded Value
O=C(Nc1cccc(F)c1)N1C2CCC1CC(O)(c1cccnc1)C2 (stereo not given)	inhibition	0.14
O=C(NCCc1cccc(F)c1)C1CC(O)CN1C(=O)Nc1ccccc1 (stereo not given)	inhibition	0.98

Which value of inhibition has been reported for CCOc1ccc(NS(=O)(=O)c2ccc(C(=O)NCC3CCCO3)cc2)cc1 (stereo not given) in the records? 0.78

Which value of inhibition has been reported for "O=C(c1cccs1)N1C[C@H](n2cc(C3CC3)nn2)[C@@H](O)C[C@@H]1c1ccccc1" in the records? 1.63

Which value of inhibition has been reported for COc1ccc(NC(=O)C(C)SCc2ccccc2)cc1 (stereo not given) in the records? 6.52
